assayTarget: UniProt Q6UWP7
protocolDetails: In vitro acyltransferase assay for ALCAT1 inhibitors
Format: biochemical
conditionSet: 1 μM compound; in vitro enzymatic assay
Below is a list of entries, each paired with its recorded inhibition at 1 µM value.
Answer with a number only, understood to be in %.

* CCCOc1ccc(C)cc1C(=O)Nc1cc(-c2nnc(-c3ccco3)o2)ccc1F | 97

Task item: Need inhibition at 1 µM of "CCOc1ccc(CC)cc1C(=O)N(c1cc(-c2nnc(-c3ccco3)o2)ccc1F)P(=O)(O)O" , thanks.
Reply: 90

Task item: So what does the record say about inhibition at 1 µM for "O=C(Nc1cccc(-c2nnc(-c3ccco3)o2)c1)c1cc(F)ccc1OCC(F)(F)F" ?
Reply: 100

###

assayTarget: ALCAT1 (Homo sapiens (Human))
protocolDetails: In vitro acyltransferase assay for ALCAT1 inhibitors
Assay type: biochemical
conditionSet: 1 μM compound; in vitro enzymatic assay
quantityKind: inhibition at 1 µM (%)
// units = %; emit number, no label

Examples with answers:
• COc1ccc(I)cc1C(=O)Nc1cccc(-c2nnc(-c3ccco3)o2)c1 [Compound 113] = 96
• CCc1ccccc1C(=O)Nc1cccc(-c2nnc(-c3ccco3)o2)c1 [Compound 240] = 12
• CS(=O)(=O)c1ccccc1C(=O)Nc1cccc(-c2nnc(-c3ccco3)o2)c1 [Compound 248] = 30
• O=C(Nc1cccc(-c2nnc(-c3ccco3)o2)c1F)c1ccccc1F [Compound 79] = 89

Task item: Value lookup for inhibition at 1 µM; key = O=C(Nc1cccc(-c2nnc(-c3ccco3)o2)c1)c1ccccc1OC(F)(F)F [Compound 232]
Reply: 61

Task item: Reported inhibition at 1 µM for CCOc1ccc(CC)cc1C(=O)Nc1cc(-c2nnc(-c3ccco3)o2)ccc1F [Compound 222] : what is it?
Reply: 100

Task item: # lookup: inhibition at 1 µM of COc1ccc(Cl)cc1NC(=O)c1cc(-c2nnc(-c3ccco3)o2)ccc1F [Compound 480]
Reply: 96

Task item: Would you mind telling me what inhibition at 1 µM value was observed for O=C(Nc1ccnc(-c2nnc(-c3ccco3)o2)c1)c1ccccc1F [Compound 52] ?
Reply: 59

Task item: Tell me the measured inhibition at 1 µM of O=C(Nc1cccc(-c2nnc(-c3ccco3)o2)c1)c1cc(Br)ccc1F [Compound 188] , please.
Reply: 93

###

assayTarget: ALCAT1 (Homo sapiens (Human), UniProt Q6UWP7)
Sequence (Q6UWP7 whole entry): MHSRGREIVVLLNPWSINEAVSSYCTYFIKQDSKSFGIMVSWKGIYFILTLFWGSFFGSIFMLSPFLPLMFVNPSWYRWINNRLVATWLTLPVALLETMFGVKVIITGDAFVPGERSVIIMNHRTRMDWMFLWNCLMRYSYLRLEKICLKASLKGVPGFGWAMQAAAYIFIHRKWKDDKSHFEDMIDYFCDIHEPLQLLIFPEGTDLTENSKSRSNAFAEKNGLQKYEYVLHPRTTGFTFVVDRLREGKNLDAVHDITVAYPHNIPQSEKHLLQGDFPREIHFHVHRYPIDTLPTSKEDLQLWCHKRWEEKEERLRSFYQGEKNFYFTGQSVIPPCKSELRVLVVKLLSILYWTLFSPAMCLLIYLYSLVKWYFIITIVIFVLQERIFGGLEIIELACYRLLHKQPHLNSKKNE
protocolDetails: In vitro acyltransferase assay for ALCAT1 inhibitors
Type: biochemical
conditionSet: 1 μM compound; in vitro enzymatic assay
quantityKind: inhibition at 1 µM (%)
Write down the numeric answer in % and omit the unit.

For orientation, consider the following solved cases.
• O=C(Nc1cccc(-c2nnc(-c3cncs3)o2)c1)c1ccccc1F = 14
• O=C(Nc1cccc(-c2nnc(-c3ccco3)o2)c1)c1cccc(OC(F)(F)F)c1 = 68
• COc1ccc(Cl)cc1C(=O)Nc1cccc(-c2nnc(-c3ccco3)o2)c1 = 92
• COc1cc(NC(=O)c2ccccc2F)cc(-c2nnc(-c3ccco3)o2)c1 = 19
• Cc1ccc(C(=O)Nc2cc(-c3nnc(-c4ccco4)o3)ccc2F)cc1[N+](=O)[O-] = 35

Task item: Consider the compound "O=C(Nc1cc(-c2ncc(-c3ccco3)o2)ccc1F)c1cccnc1F" and give its measured inhibition at 1 µM.
Reply: 48

Task item: Report inhibition at 1 µM for "O=C(Nc1cccc(-c2nnc(-c3ccco3)o2)c1)c1cc(F)ccc1F" please.
Reply: 70

###

assayTarget: ALCAT1 (Homo sapiens (Human), UniProt Q6UWP7)
protocolDetails: In vitro acyltransferase assay for ALCAT1 inhibitors
Format: biochemical
conditionSet: 1 μM compound; in vitro enzymatic assay
Below, each of the compounds is paired with its reported inhibition at 1 µM value.

Recorded results for 3 compounds are shown here.
- COc1ccc(OC)c(C(=O)Nc2cccc(-c3nnc(-c4ccco4)o3)c2)c1: 79%
- O=C(Nc1cccc(-c2nnc(-c3ccco3)o2)c1)c1ccc(Br)cc1F: 15%
- CC(C)Oc1ccc(Cl)cc1C(=O)Nc1cccc(-c2nnc(-c3ccco3)o2)c1: 57%

Could you now look at the following compound, please?
Task item: Which inhibition at 1 µM value is on record for "O=C(Nc1cccc(-c2nnc(-c3ccco3)o2)c1)c1ccncc1" ?
Reply: 35%

###

assayTarget: ALCAT1 (Homo sapiens (Human), UniProt Q6UWP7)
protocolDetails: In vitro acyltransferase assay for ALCAT1 inhibitors
Type: biochemical
conditionSet: 1 μM compound; in vitro enzymatic assay
The compounds listed here are annotated with their inhibition at 1 µM.
Response body: numeric value in %, unit text excluded.

- COc1c(F)cccc1C(=O)Nc1cccc(-c2nnc(-c3ccco3)o2)c1 [Compound 220]: 96
- CSc1ccccc1C(=O)Nc1cccc(-c2nnc(-c3ccco3)o2)c1 [Compound 181]: 34
- CCCOc1ccc(Br)cc1C(=O)Nc1cccc(-c2nnc(-c3ccco3)o2)c1 [Compound 119]: 92
- Cc1ccc(OCC(F)(F)F)c(C(=O)Nc2cc(-c3nnc(-c4ccco4)o3)ccc2F)c1 [Compound 322]: 94
- CC(C)c1cccc(C(=O)Nc2cccc(-c3nnc(-c4ccco4)o3)c2)c1 [Compound 277]: 23
- CCOc1ccc(F)cc1C(=O)Nc1cccc(-c2nnc(-c3ccco3)o2)c1 [Compound 125]: 92

Task item: What does the record list as inhibition at 1 µM for CCOc1ccc(Cl)cc1C(=O)Nc1cc(-c2nnc(-c3ccco3)o2)ccc1F [Compound 216] ?
Reply: 100

Task item: If you can, please state the reported inhibition at 1 µM value of CCOc1ccccc1C(=O)Nc1cccc(-c2nnc(-c3ccco3)o2)c1 [Compound 174] .
Reply: 96

###

Here the recorded inhibition at 1 µM is given for each entry.
assayTarget: ALCAT1 (Homo sapiens (Human), UniProt Q6UWP7)
protocolDetails: In vitro acyltransferase assay for ALCAT1 inhibitors
Format: biochemical
conditionSet: 1 μM compound; in vitro enzymatic assay
Give the number; % is assumed, so skip it.

Consider the reported inhibition at 1 µM for these compounds:
* Cc1ccc(F)c(C(=O)Nc2cccc(-c3nnc(-c4ccco4)o3)c2)c1 [Compound 176] | 73
* COc1ccc(C)cc1C(=O)Nc1cc(-c2nnc(-c3ccco3)o2)ccc1F [Compound 300] | 96
* O=C(Nc1cccc(-c2nnc(-c3ccco3)o2)c1)c1cc(Br)ccc1OCC(F)(F)F [Compound 226] | 100

Task item: Value lookup for inhibition at 1 µM; key = COc1cccc(C(=O)Nc2cccc(-c3nnc(-c4ccco4)o3)c2)c1OC [Compound 169]
Reply: 74

Task item: Given COc1ccc(C(=O)Nc2cc(-c3nnc(-c4ccco4)o3)ccc2F)cc1[N+](=O)[O-] [Compound 333] , state its recorded inhibition at 1 µM.
Reply: 18

Task item: Which inhibition at 1 µM is listed for O=C(Nc1cccc(-c2nnc(-c3ccco3)o2)c1)c1cccc2ccoc12 [Compound 227] ?
Reply: 85

Task item: Tell me the measured inhibition at 1 µM of COc1c(C)cccc1C(=O)Nc1cccc(-c2nnc(-c3ccco3)o2)c1 [Compound 182] , please.
Reply: 33

Task item: Consider the compound shown here: COc1ccc(C)cc1C(=O)Nc1cccc(-c2nnc(-c3ccco3)o2)c1 [Compound 197] What is its recorded inhibition at 1 µM?
Reply: 80

###

assayTarget: ALCAT1 (Homo sapiens (Human), UniProt Q6UWP7)
protocolDetails: In vitro acyltransferase assay for ALCAT1 inhibitors
Assay type: biochemical
conditionSet: 1 μM compound; in vitro enzymatic assay
Form field: inhibition at 1 µM (one value per entry).
A number alone suffices; assume %.

The cases that follow already have their inhibition at 1 µM on record.
- O=C(Nc1cc(F)cc(-c2nnc(-c3ccco3)o2)c1)c1ccccc1F: 50
- CCOc1ccccc1C(=O)Nc1cc(-c2nnc(-c3ccco3)o2)ccc1F: 100
- O=C(Nc1cccc(-c2nnc(-c3ccco3)o2)c1)c1cncc([N+](=O)[O-])c1: 24

Moving on to the next compound.
Task item: Form: Entry = "O=C(Nc1cccc(-c2nnc(-c3ccco3)o2)c1)c1ccccc1OC(F)F" | System = ALCAT1 (Homo sapiens (Human), UniProt Q6UWP7) | inhibition at 1 µM = ____
Reply: 97

###

assayTarget: ALCAT1 (Homo sapiens (Human), UniProt Q6UWP7)
protocolDetails: In vitro acyltransferase assay for ALCAT1 inhibitors
Type: biochemical
conditionSet: 1 μM compound; in vitro enzymatic assay
Recorded inhibition at 1 µM for the following molecules
Answer in %, number only, no unit symbol.

# annotated cases, reported inhibition at 1 µM shown
• CCCc1ccc(OC)c(C(=O)Nc2cc(-c3nnc(-c4ccco4)o3)ccc2F)c1 = 100
• Cc1ccc(F)c(NC(=O)c2cccc(-c3nnc(-c4ccco4)o3)c2)c1 = 83
• O=C(Nc1cccc(-c2nnc(-c3ccco3)o2)c1)c1ccccc1OCC(F)F = 98
• Cc1cc(NC(=O)c2ccccc2F)cc(-c2nnc(-c3ccco3)o2)c1 = 26

We next turn to a different molecule, shown below.
Task item: Query: inhibition at 1 µM; subject: "O=C(Nc1cccc(-c2nnc(-c3ccco3)o2)c1)c1ccccc1O"
Reply: 15

Reference for the values: patent US11208404B2
